The measurements presented in this section are drawn from patent US12195427B2.

# target: MASP-2 CCP2-SP (Homo sapiens (Human))
# Sequence (O00187 445-686): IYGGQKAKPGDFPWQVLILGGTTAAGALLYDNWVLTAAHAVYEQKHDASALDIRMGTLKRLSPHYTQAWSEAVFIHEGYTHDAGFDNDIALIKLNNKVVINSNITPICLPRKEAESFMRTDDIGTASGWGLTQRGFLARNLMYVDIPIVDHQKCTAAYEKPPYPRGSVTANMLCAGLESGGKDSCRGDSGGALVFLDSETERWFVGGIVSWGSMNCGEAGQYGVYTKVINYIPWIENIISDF
# Sequence (O00187 364-432 partner): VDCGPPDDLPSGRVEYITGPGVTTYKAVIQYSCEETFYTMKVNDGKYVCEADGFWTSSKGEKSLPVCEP
# assay-notes: MASP-2 co-crystallization, X-ray crystallography and structure analysis (H-bonds, van der Waals contacts)
# test-context: Table A5-2 pharmacophore distance, S3/S4 region
# Source text: This example illustrates the preparation of recombinant MASP-2 protein, based on UniProt O00187, human mannan-binding lectin serine protease 2. Expression constructs for human MASP-2 CCP2-SP and CCP2-SP-6HIS were generated for recombinant expression in E. coli cells. […]
Reported d(O2,N2) by item:
Output: the number by itself.

Field: example entries. Status: answers known.
# compound, d(O2,N2)
records = [
    ("C[C@H](NC(=O)[C@H]1C[C@@H](c2ccccc2)CN1)C(=O)NCc1ccc2c(N)nccc2c1.Cl.Cl [1089_B]", 2.70),
    ("C[C@H](NC(=O)[C@H]1C[C@H](c2ccccc2)CN1)C(=O)NCc1ccc2c(N)nccc2c1", 2.72),
]

Challenge: Quick one: give measured d(O2,N2) for CC(NC(=O)C(CCc1ccccc1)NCCCc1ccc(O)cc1)C(=O)NCc1ccc(C(=N)N)cc1.Cl.Cl (stereo not drawn)
Response given: 2.77
